- Run Description: Phase 1 Main Study: veledimex in plasma and tumor
- Type: in vivo, human
- Condition Parameters: human, tumor (relative to plasma), oral; Main Study; tumor vs plasma at resection, about 3 hours after V; read-out: V tumor penetration

{"columns": ["Molecule", "Kp"],
 "data": [
  ["CCC[C@@H](N(NC(=O)c1cccc(OC)c1CC)C(=O)c1cc(C)cc(C)c1)C(C)(C)C [veledimex]", "~0.4"]
]}

Data origin: patent US20210395773A1
